target: Trypsin (Homo sapiens, UniProt P07477+P07478+P35030); test: Inhibitory activity against human trypsin (using Chromozym TH as the substrate); type: protein assay
MEASUREMENT_KIND: Ki (µM)

[[record]]
compound = "CN(C)c1cccc2c(S(=O)(=O)NN=C(N)N)cccc12"
unit_annotation = "µM"
val = 1.2

[[record]]
compound = "N=C(N)NNS(=O)(=O)c1ccccc1[N+](=O)[O-]"
unit_annotation = "µM"
val = 1.8

[[record]]
compound = "COC(=N)NS(=O)(=O)N(C)C"
unit_annotation = "µM"
val = 3.3

[[record]]
compound = "COC(=N)NS(=O)(=O)c1ccc(NC(=O)[C@@H](Cc2ccccc2)NC(=O)NS(=O)(=O)c2ccc(C)cc2)cc1"
unit_annotation = "µM"
val = 1.32

[[record]]
compound = "COC(=N)NS(=O)(=O)C(F)(F)F"
unit_annotation = "µM"
val = 1.45

[[record]]
compound = "COC(=N)NS(=O)(=O)c1c(Br)c(Br)c(Br)c(Br)c1C(=O)O"
unit_annotation = "µM"
val = 1.3

[[record]]
compound = "COC(=N)NS(=O)(=O)c1ccc(N)cc1"
unit_annotation = "µM"
val = 1.58

[[record]]
compound = "N=C(N)NS(=O)(=O)c1ccc(Cl)cc1"
unit_annotation = "µM"
val = 1.17

[[record]]
compound = "COC(=N)NS(=O)(=O)c1cccc2c(N(C)C)cccc12"
unit_annotation = "µM"
val = 1.375

[[record]]
compound = "COC(=N)NS(=O)(=O)c1ccc(OC)c(N)c1"
unit_annotation = "µM"
val = 1.235

[[record]]
compound = "COC(=N)NS(=O)(=O)c1cccc(N)c1"
unit_annotation = "µM"
val = 1.37

[[record]]
compound = "N=C(N)NS(=O)(=O)c1ccc([N+](=O)[O-])c(Cl)c1"
unit_annotation = "µM"
val = 0.99

